tested on: glycogen synthase kinase-3 (GSK3A per assay name; protocol says GSK3B); assay: compounds binding glycogen synthase kinase-3 – biochemical, small-molecule microarray, 635 nm fluorescence, GSK3A, primary screen (AID 1103); conditions: fluorescence 635 nm, higher = more signal; also: the record names both GSK3A and GSK3B
Threshold rule: composite z-score greater than or equal to 0.4 is met; below that, not met.

{"smiles structure": "NCCCCCNC(=O)[C@H]1C[C@H]2C(=O)N[C@@H](Cc3ccccc3)C(=O)N2[C@H]1c1cccc(OCCO)c1", "assigned category": "not met"}
{"smiles structure": "COC(=O)[C@@]1(CCC(=O)OC(C)(C)C)N=C(c2ccc(OCCCO)cc2)O[C@H]1c1ccccc1", "assigned category": "not met"}
{"smiles structure": "[N-]=[N+]=Nc1ccccc1[C@H]1OC(c2ccc(OCCCO)cc2)=N[C@@]1(CCS(=O)(=O)c1ccccc1)C(=O)NCc1ccccc1", "assigned category": "met"}
{"smiles structure": "O=C1O[C@@H](c2ccccc2)[C@@H](c2ccccc2)N2[C@@H](c3ccccc3OCCO)[C@]3(C(=O)Nc4ccccc43)[C@@H](C(=O)O)[C@H]12", "assigned category": "not met"}
{"smiles structure": "C=CCOC(=O)[C@H]1[C@@H]2C(=O)O[C@@H](c3ccccc3)[C@@H](c3ccccc3)N2[C@@H](c2ccc(OCCOC(=O)[C@H]3C[C@H]4C(=O)N[C@@H](CCCCN(C)C)C(=O)N4[C@H]3c3cccc(OCCO)c3)cc2)[C@]12C(=O)Nc1ccc(I)cc12", "assigned category": "met"}
{"smiles structure": "COC(=O)c1c(CC[C@@H](CO)NC(=O)NCCc2c[nH]c3ccccc23)oc(C(=O)Cc2ccccc2)c1C(=O)OC", "assigned category": "met"}

----------
assay: probe aLefty2 binding to arrayed compounds – biochemical, biotinylated probe, 635/667 nm fluorescence, primary screen (AID 1094); conditions: small-molecule microarray, higher = more signal;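 also: score merges spot fluorescence near 667 nm with spot signal-to-noise ratio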
endpoint name: composite z-score

{"compound": "CC(=O)Nc1cc(Br)ccc1C(=O)NCc1ccccc1", "obs value": -0.0778}
{"compound": "COC(=O)[C@@]1(Cc2ccc(OC)cc2)[C@H]2c3cc(C(=O)N4CCCC4)n(CCc4ccc(O)c(O)c4)c3C[C@H]2CN1C(=O)c1ccccc1", "obs value": 0.491}
{"compound": "COCCOC(=O)N1C(=O)[C@@]2(c3cc(C#CC4(O)CCCCCC4)ccc31)[C@H](C(=O)Nc1nc3ccccc3s1)[C@H]1C(=O)O[C@H](c3ccccc3)[C@H](c3ccccc3)N1[C@@H]2c1ccc(OCCO)cc1", "obs value": -0.0458}
{"compound": "C=CCNC(=O)[C@@H]1[C@H]2C(=O)O[C@H](c3ccccc3)[C@H](c3ccccc3)N2[C@H](c2ccc(OCCO)cc2)[C@@]12C(=O)N(C(=O)OCCOC)c1ccc(C#CCNC(N)=O)cc12", "obs value": 0.0565}
{"compound": "O=C(O)C1N=C(c2ccc(OCCCO)cc2)N(c2ccccc2)O1 (stereo unspecified)", "obs value": 0.0399}
{"compound": "COc1ccc([Si](C)(C)[C@@H]2[C@@H](CCn3cc([C@H](O)c4ccccc4)nn3)O[C@]3(C(=O)N(Cc4cccc(N5CCC5=O)c4)c4ccccc43)[C@H]2C)cc1", "obs value": -0.0956}

----------
experiment: hepatitis C replication reporter changes, two-sided – Huh7 cells, luciferase reporter, HCV replication inhibitor project, primary screen (AID 1109); conditions: Huh7 HCV replicon luciferase reporter, 48 h; higher = more signal;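 also: huh7 hepatoma cells harbouring a luciferase neomycin HCV replicon reporter; luciferase luminescence as measure of HCV replicon replication; test concentration not given here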
endpoint name: z-score

{"compound": "O=C1NC(=O)C2C1C=CC(C(O)C=Cc1ccc([N+](=O)[O-])cc1)N2Nc1ccc(Cl)cc1Cl (configuration not stated)", "obs value": 0.498}
{"compound": "COC(=O)[C@]1(CCC(=O)OC(C)(C)C)N=C(c2ccc(OCCCO)cc2)O[C@@H]1c1ccccc1", "obs value": -2.73}
{"compound": "NC(=O)[C@@H]1[C@H]2C(=O)O[C@H](c3ccccc3)[C@H](c3ccccc3)N2[C@H](c2ccc(O)cc2)[C@@]12C(=O)Nc1ccc(C#CC3=CCCCC3)cc12", "obs value": -3.23}
{"compound": "O=C(CS)NCCCCCNC(=O)[C@@H]1C[C@@H]2C(=O)NCC(=O)N2[C@@H]1c1ccc(O)cc1", "obs value": 0.627}
{"compound": "COc1ccc(CCNC(=O)[C@@]2(c3ccc([N+](=O)[O-])cc3)CC(=O)N(CC34CC5CC(CC(C5)C3)C4)[C@@H]2c2ccc(CO)cc2I)cc1", "obs value": -3.41}
{"compound": "O=C(O)[C@H](Cc1ccccc1)n1cc(-c2ccccc2)nn1", "obs value": 0.36}
{"compound": "CCOC(=O)[C@H]1C/C=C/C[C@H](C(=O)OCC)C(=O)O[C@H]2[C@@H](OC)O[C@H](CO)[C@@H](OC(=O)c3ccc(Br)cc3)[C@@H]2OC1=O", "obs value": -2.74}

----------
tested on: Neuregulin-1 EGF-like domain; experiment: small molecules binding NRG1 EGF domain – biochemical, small-molecule microarray, 635 nm fluorescence, primary screen (AID 1081); details: higher = more signal;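 also: binding of the protein to compounds printed on small-molecule microarray slides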
endpoint name: composite z-score

{"molecule": "COC(=O)c1c(CC[C@@H](CO)NC(=O)NCCc2c[nH]c3ccccc23)oc(C(=O)Cc2ccccc2)c1C(=O)OC", "obs value": 0.939}
{"molecule": "COCC(=C=CC[C@H](O)c1ccccc1OCCO)CCO", "obs value": 0.857}
{"molecule": "[N-]=[N+]=Nc1ccccc1C[C@]1(C(=O)NCc2ccccc2)N=C(c2ccc(OCCCO)cc2)O[C@H]1c1ccccc1N=[N+]=[N-]", "obs value": 1.06}
{"molecule": "COc1cc2c(cc1OC)CN(C(=O)[C@H]1[C@@H]3C(=O)O[C@@H](c4ccccc4)[C@@H](c4ccccc4)N3[C@@H](c3ccccc3OCCO)[C@]13C(=O)Nc1ccc(C#CCCO)cc13)CC2", "obs value": 1.07}
{"molecule": "CC(=O)n1cc(C(O)C2C=CC3C(=O)NC(=O)C3N2Nc2ccccn2)c2ccccc21 (stereo not drawn)", "obs value": 1.27}
{"molecule": "CC(=O)Nc1cc(Br)ccc1C(=O)NCc1ccccc1", "obs value": 1.23}
{"molecule": "COc1cc2c(cc1O)C(c1cccs1)N(Cc1cccc(OC(F)(F)F)c1)CC2 (stereo not drawn)", "obs value": 0.774}
{"molecule": "COc1ccc(-c2cc3c(c(Cc4ccccc4)n2)[Si](C(C)C)(C(C)C)OC3)cn1", "obs value": -0.723}

----------
target: Fibroblast growth factor 2 (Homo sapiens) (UniProt P09038); assay: basic fibroblast growth factor binding to printed compounds – biochemical, small-molecule microarray, 635/667 nm fluorescence, primary screen (AID 1133); conditions: FGF2, fluorescence 635/667, higher = more signal
Sequence (P09038 whole entry, looked up): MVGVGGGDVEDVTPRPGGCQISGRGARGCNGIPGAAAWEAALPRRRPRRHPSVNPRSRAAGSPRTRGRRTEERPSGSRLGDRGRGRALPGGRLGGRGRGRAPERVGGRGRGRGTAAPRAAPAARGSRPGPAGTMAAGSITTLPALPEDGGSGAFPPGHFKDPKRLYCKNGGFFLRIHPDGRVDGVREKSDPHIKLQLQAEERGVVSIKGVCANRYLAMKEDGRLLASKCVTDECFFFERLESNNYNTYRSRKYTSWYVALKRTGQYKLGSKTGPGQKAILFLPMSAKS

{"compound": "C#CCOc1ccc(C[C@@H](C(=O)OC)N(CC#C)[C@@H](/C=C/C2CC2)[C@H](O)Cc2ccccc2)cc1", "composite z-score": -0.768}
{"compound": "COc1cc2c(cc1O)C=[N+](Cc1cc3c(cc1Br)OCO3)CC2", "composite z-score": -0.659}
{"compound": "[N-]=[N+]=NCc1ccccc1[C@@H]1OC(c2ccc(OCCCO)cc2)=N[C@]1(CCS(=O)(=O)c1ccccc1)C(N)=O", "composite z-score": 1.83}
{"compound": "COc1cc(CO)cc(I)c1O[C@H]1C=C(C(=O)NCCO)C[C@@H](N(C(=O)c2cc3ccccc3oc2=O)C2CCCCCC2)[C@@H]1O", "composite z-score": 1.32}
{"compound": "[N-]=[N+]=Nc1ccccc1[C@H]1OC(c2ccc(OCCCO)cc2)=N[C@@]1(CCS(=O)(=O)c1ccccc1)C(=O)NCc1ccccc1", "composite z-score": 0.694}
{"compound": "NCCCCCNC(=O)[C@H]1C[C@H]2C(=O)N[C@@H](Cc3ccccc3)C(=O)N2[C@H]1c1cccc(OCCO)c1", "composite z-score": 0.159}
{"compound": "COc1ccc([Si](C)(C)[C@H]2[C@H](CCn3cc([C@H](O)c4ccccc4)nn3)O[C@@]3(C(=O)N(C)c4ccccc43)[C@@H]2C)cc1", "composite z-score": 0.322}
{"compound": "CCCC1(C(=O)OC)C=C2C(=C(c3ccccc3)C(=O)C2C)CN1 (stereo not drawn)", "composite z-score": -0.299}

----------
biological target: Neurogenic locus notch homolog protein 2 (Homo sapiens) (UniProt Q04721); experiment: small molecules binding Notch2 protein – biochemical, small-molecule microarray, 635 nm fluorescence, stem cell growth factors, primary screen (AID 1073); settings: higher = more signal
Sequence (Q04721 whole entry, looked up): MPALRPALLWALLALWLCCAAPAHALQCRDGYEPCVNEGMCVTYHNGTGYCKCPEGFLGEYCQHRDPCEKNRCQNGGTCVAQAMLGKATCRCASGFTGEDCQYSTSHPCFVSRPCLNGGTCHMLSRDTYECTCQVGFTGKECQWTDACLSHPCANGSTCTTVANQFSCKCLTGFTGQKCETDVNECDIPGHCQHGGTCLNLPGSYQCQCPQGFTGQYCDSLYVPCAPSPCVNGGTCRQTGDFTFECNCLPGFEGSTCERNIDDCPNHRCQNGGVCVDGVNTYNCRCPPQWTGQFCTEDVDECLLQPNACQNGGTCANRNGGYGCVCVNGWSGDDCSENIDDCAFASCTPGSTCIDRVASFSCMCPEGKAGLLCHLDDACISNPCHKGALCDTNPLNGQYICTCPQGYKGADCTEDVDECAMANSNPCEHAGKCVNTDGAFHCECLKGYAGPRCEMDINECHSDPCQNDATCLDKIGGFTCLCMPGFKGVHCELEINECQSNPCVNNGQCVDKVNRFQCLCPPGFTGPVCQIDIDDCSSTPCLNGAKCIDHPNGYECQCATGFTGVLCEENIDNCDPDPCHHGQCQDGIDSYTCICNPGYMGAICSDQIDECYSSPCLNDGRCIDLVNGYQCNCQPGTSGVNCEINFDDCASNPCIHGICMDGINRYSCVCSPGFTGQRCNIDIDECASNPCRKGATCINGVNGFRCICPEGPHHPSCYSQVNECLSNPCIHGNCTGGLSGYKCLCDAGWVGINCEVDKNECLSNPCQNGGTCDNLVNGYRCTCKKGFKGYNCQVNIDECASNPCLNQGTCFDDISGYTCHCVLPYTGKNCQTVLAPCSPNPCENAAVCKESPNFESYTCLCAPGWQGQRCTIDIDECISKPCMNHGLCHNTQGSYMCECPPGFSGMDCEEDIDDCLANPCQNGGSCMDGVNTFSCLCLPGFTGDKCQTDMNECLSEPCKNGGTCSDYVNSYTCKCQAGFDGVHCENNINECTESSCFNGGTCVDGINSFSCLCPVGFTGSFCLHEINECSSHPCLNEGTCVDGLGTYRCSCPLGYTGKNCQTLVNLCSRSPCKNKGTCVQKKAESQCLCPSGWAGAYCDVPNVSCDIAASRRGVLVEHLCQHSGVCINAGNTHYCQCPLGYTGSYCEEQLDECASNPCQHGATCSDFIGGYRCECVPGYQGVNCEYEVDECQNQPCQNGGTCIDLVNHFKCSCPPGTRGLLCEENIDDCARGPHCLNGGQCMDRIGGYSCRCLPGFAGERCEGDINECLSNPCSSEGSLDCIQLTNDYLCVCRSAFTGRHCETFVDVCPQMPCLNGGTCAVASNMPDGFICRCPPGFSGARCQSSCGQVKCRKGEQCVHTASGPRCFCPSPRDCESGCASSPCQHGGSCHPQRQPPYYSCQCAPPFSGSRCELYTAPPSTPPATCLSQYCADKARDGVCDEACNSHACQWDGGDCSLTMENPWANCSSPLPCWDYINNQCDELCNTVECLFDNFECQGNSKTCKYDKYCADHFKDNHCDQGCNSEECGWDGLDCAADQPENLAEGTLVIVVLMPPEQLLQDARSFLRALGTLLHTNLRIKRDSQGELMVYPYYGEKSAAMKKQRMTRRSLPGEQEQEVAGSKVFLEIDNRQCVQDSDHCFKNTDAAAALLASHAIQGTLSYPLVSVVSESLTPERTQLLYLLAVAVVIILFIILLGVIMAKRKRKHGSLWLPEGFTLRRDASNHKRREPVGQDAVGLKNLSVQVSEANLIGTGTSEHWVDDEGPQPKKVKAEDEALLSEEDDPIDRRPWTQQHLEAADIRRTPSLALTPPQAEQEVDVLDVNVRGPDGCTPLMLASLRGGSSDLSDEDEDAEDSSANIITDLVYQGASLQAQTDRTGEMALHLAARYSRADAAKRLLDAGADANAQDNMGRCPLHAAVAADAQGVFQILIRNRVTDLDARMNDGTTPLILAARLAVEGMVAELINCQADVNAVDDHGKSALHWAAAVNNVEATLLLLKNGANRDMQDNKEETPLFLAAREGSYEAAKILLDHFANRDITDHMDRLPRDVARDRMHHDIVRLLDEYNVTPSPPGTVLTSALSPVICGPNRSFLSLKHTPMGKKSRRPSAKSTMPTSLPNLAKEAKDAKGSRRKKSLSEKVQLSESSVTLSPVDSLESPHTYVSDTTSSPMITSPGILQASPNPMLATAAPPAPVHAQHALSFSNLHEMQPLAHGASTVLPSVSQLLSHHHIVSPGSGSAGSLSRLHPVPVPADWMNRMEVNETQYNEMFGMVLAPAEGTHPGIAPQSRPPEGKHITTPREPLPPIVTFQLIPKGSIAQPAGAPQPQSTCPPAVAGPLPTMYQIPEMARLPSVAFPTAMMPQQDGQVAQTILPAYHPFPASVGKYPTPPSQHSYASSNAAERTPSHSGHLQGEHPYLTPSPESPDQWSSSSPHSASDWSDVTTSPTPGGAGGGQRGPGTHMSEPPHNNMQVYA
Attribute: composite z-score

{"compound": "[N-]=[N+]=Nc1ccccc1[C@H]1OC(c2ccc(OCCCO)cc2)=N[C@@]1(CCS(=O)(=O)c1ccccc1)C(=O)NCc1ccccc1", "composite z-score": 1.66}
{"compound": "COCCOC(=O)N1C(=O)[C@@]2(c3ccccc31)[C@H](C(=O)N1CCCCCCC1)[C@H]1C(=O)O[C@H](c3ccccc3)[C@H](c3ccccc3)N1[C@@H]2c1ccc(OCCO)cc1", "composite z-score": 1.75}
{"compound": "CCCCN1CC=CC23O[C@@H]4C=CCOC(=O)[C@@H]4[C@H]2C(=O)N(CCCCCCO)[C@@H]3C1=O (stereo partly drawn)", "composite z-score": -1.86}

Numbers sourced from PubChem BioAssay.
